B1: tRNA (parent)
chain: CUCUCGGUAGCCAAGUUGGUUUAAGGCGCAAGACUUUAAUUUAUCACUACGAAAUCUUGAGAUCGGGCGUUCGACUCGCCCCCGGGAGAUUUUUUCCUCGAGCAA

variants of: B1; test: nonsense suppression (GFP-seq) (ratio to wild type); higher = more function; SUP4oc tRNA, yeast GFP reporter sort-seq
Fewer inactive variants are shown than the library holds.
Measured nonsense suppression, listed per entry.

Examples with their reported nonsense suppression follow.
INSERT INTO results (residuestring, experimentalreadout, recordedvalue) VALUES
  ('CUCUCGGUAACCAAGUUGGUUUAAGGCGCAACACUUUAAUUUAUCACUACGAAAUCUUGAGAUCGGGCGUUCGACUCGCCCCCGGGACAUUUUUUCCUCGAGCAA [G10A G32C G88C]', 'nonsense suppression', '≤ 0.026'),
  ('CUCUCGGUAUCCAAGUUGGUUUAAGGCGCAAGACUUUAAUUUAUCACUACGAAAUCUUGAGAUCGGGCGUUCGACUGGCCCCCGGGAGAUUUUUUCCUCGAGCAA [G10U C77G]', 'nonsense suppression', '≤ 0.026'),
  ('CUCUCGGUAGCCAAGUUGGUUUAAGGGGCAAUACUUUAAUUUAUCACUACGAAAUCUUGAGAUCGGGCGUUCGAAUCGCCGCCGGGACAUUUUUUCCUCGAGCAA [C27G G32U C75A C81G G88C]', 'nonsense suppression', '≤ 0.026'),
  ('CUAUCGGUGGCCAAGUUGGUUUAAGGCGCAAGACUUUAAUUUAUCACUACGAAAUCUUGAGAUGGGGCGUUCGACUCGCCCCCGGGAGAUUUUUUCCUCGAGCAA [C3A A9G C64G]', 'nonsense suppression', '≤ 0.026'),
  ('CUCUCGGUAGCCAAGUUCGUUUAAGGCGCAAGACUUUAAUUUAUCACUACGAAGUCUUGAGAUCGGGCGUUCGACUCGCCCCCGGGAGAUUUUUUCCUCGAGCAA [G18C A54G]', 'nonsense suppression', '≤ 0.026');

Give its nonsense suppression value. Item: CUCUCGGUAGCCAAGUUGGAUUAUGGCGCAAGACUUUAAUUUAUCACUACGAAAUCUUGAGAACGGGCGUUCGACUCGCCCCCGGGAGAUUUUUUCCUCGAGCAA [U20A A24U U63A]
≤ 0.026

Another variant: CUCUCGGUAGCCAAGUUGGUUUAAGGCGCAGGAGUUUAAUUUAUCACUACGAAAUCUUGAGAUCGGGCGUUCGACGCGCCCCCGGGAGAUUUUUUCCUCGAGCAA [A31G C34G U76G]
≤ 0.026

Try this variant next: CUCUAGGUAGCCAAGGUGGUUUAAGGCGCAAGACUUUAAUUUAUCACUACGAAAUCUUGAGAUCGGGCGUUCGACUCGCCCCCGGGAUAUUUUUUCCUCGAGCAA [C5A U16G G88U]
≤ 0.026

// repeat for AUCUCGGUAGCCAAGUUGGUUUAAGGCGCAAGACGUUAAUUUAUCACUACGAAAUCUUGAGAUCGGGCGUUCGACUCGCCCCCGGGAGAUUUUUUCCUCGAGCAA [C1A U35G] and report
≤ 0.026

Next variant: CUCUUGGACCCUAAGUUGGUUUAAUGCGCAGGACUUUAAUUUAUCACUACGAAAUCUUGAGAUCGGGCGUUCGACUCGCCCCCGGGAGAUUUUUUCCUCGAGCAA [C5U U8A A9C G10C C12U G25U A31G]
≤ 0.026

Same for CUCUCGGUAGCCAAGUUGGUUUAAGGCGCAAGACUUUAAUUUAUCACUACGAAAUCUUGAGAUCGGGCGUUCGACUCGACCCCCGGAGAUUUUUUCCUCGAGCAA [C79A G84C]
≤ 0.026
